# procedure-details: self-splicing fitness, log relative to wild type (ln ratio); higher = more splicing; Tetrahymena group I intron in knt gene, E. coli kanamycin selection, DiMSum; sequences stand for … in CUCUCU…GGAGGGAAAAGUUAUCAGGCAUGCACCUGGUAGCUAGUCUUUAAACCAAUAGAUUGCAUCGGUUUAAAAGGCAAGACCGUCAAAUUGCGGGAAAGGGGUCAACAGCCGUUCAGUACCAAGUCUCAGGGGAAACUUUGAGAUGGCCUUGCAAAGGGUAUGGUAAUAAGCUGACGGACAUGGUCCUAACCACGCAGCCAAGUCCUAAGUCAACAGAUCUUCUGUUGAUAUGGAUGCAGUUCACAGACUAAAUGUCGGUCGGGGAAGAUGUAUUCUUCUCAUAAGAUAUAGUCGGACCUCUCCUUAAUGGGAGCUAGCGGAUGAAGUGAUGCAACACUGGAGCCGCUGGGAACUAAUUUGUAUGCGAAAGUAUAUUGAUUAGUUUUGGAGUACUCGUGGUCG;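 note: selection with 25 µg/mL kanamycin versus none on LB agar overnight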
# measurement-context: 37 °C
// map self-splicing fitness (ln) onto a label; ranges 1: < -2; 2: ≥ -2 and < -0.7; 3: ≥ -0.7

Please review the following examples before continuing.
sequence_text=CUUUAGCAAUAUUACGUAGA category_label=1
sequence_text=AACGAGCAAUAUUACGCCUU category_label=2
sequence_text=UAGCAGCAAUAUUACGUUUG category_label=2
sequence_text=AACUAGCAAUAUUACGAUGC category_label=1
sequence_text=CCAAAGCAAUAUUACGCUCG category_label=3

Which band does `AACAAGCAAUAUUACGCACC` fall in? 3

Check `GAGAAGCAAUAUUACGGAAC` too. 3
